- TEST_SYSTEM: human OPRM1 (μ, MOR) (Homo sapiens)
- Construct: host or cells: CHO-K1
- Sequence (P35372 whole entry): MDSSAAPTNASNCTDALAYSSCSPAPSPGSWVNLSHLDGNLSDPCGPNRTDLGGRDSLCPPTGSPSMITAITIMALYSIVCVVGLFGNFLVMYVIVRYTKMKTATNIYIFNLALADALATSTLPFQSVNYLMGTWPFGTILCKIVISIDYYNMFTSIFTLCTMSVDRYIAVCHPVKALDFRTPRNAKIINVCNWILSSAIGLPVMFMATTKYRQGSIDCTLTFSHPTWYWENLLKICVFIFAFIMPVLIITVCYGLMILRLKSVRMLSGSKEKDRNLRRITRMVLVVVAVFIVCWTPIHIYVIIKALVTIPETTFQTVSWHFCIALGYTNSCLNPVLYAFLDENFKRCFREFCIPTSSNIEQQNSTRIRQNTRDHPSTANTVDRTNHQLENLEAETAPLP
- TEST: cell-based
- CONDITION_DETAILS: PathHunter human OPRM1 Arrestin CHO-K1 cell line; read-out: β-Arrestin EC50
pEC50: −log10 of the molar value. Structures can show the parent of a compound that is named as a salt.
Recorded pEC50, one value per entry.

{"COMPOUND": "CN(C)C(CNC(=O)N1Cc2cccc(C#N)c2C1)c1ccsc1 (stereo not drawn)", "pEC50": "< 4.00"}
{"COMPOUND": "CN(C)C(CNC(=O)N1Cc2cccc(F)c2C1)c1ccsc1 (stereo not drawn) [Compound 3a, hydrochloride]", "pEC50": 6.51}
{"COMPOUND": "Cc1ccc2c(c1)CN(C(=O)NCC(c1ccsc1)N(C)C)C2 (stereo not drawn) [Compound 12a, hydrochloride]", "pEC50": "< 4.00"}

====

- TEST_SYSTEM: human OPRM1 (μ, MOR) (Homo sapiens)
- Construct: host or cells: CHO-K1
- TEST: cell-based
- CONDITION_DETAILS: OPRM1, read-out: β-Arrestin Emax
Counter-ions that a name gives are not always drawn.

{"COMPOUND": "CN(C)[C@H](CCNC(=O)N1CC[C@@H](c2ccccc2)C1)c1ccsc1", "COMPARISON_OPERATOR": "<", "Emax [%]": 1}
{"COMPOUND": "CNC(CNC(=O)N1Cc2ccccc2C1)c1ccccc1 (stereo not shown) [Compound 38]", "COMPARISON_OPERATOR": "=", "Emax [%]": 6.6}
{"COMPOUND": "COc1ccc(C(CNC(=O)N2CC[C@H](c3ccccc3)C2)N(C)C)cc1 (stereo partly shown)", "COMPARISON_OPERATOR": "<", "Emax [%]": 1}
{"COMPOUND": "CN(C)C(CNC(=O)N1Cc2cccc(F)c2C1)c1ccsc1 (stereo not shown) [Compound 3a, hydrochloride]", "COMPARISON_OPERATOR": "=", "Emax [%]": 21.9}
{"COMPOUND": "CN(C)C(CNC(=O)N1CCCc2ccccc21)c1ccccc1 (stereo not shown) [Compound 69a]", "COMPARISON_OPERATOR": "=", "Emax [%]": 8}
{"COMPOUND": "C[C@@H](NC(=O)[C@@H](N)Cc1ccc(O)cc1)C(=O)NCC(=O)N(C)[C@@H](Cc1ccccc1)C(=O)NCCO [DAMGO, H-Tyr-D-Ala-Gly-NMe-Phe-Gly-OH, reference compound]", "COMPARISON_OPERATOR": "=", "Emax [%]": 98.3}
{"COMPOUND": "CN(C)C(CNC(=O)N1Cc2ccc(O)cc2C1)c1ccc(O)cc1 (stereo not shown) [Compound 24, hydrobromide]", "COMPARISON_OPERATOR": "<", "Emax [%]": 1}
{"COMPOUND": "CN(C)C(CNC(=O)N(C)[C@@H]1CCCc2ccccc21)c1ccsc1 (stereo partly shown)", "COMPARISON_OPERATOR": "=", "Emax [%]": 8.1}
{"COMPOUND": "CN(C)C(CNC(=O)N1CCCc2ccccc21)c1ccsc1 (stereo not shown) [Compound 9a, hydrochloride]", "COMPARISON_OPERATOR": "=", "Emax [%]": 5.11}
{"COMPOUND": "CN(C)C(CNC(=O)N1Cc2ccccc2C1)c1ccccc1 (stereo not shown) [Compound 18a, hydrochloride]", "COMPARISON_OPERATOR": "=", "Emax [%]": 6.91}
{"COMPOUND": "CN(C)C(CNC(=O)N(C)[C@H]1CCCc2ccccc21)c1ccsc1 (stereo partly shown)", "COMPARISON_OPERATOR": "=", "Emax [%]": 10.9}
{"COMPOUND": "COc1ccc(C(CNC(=O)N2CCCc3cc(F)ccc32)N(C)C)cc1 (stereo not shown) [Compound 68a]", "COMPARISON_OPERATOR": "=", "Emax [%]": 39.9}
{"COMPOUND": "COc1ccc(C(CNC(=O)N2Cc3ccccc3C2)N(C)C)cc1 (stereo not shown) [Compound 15a, hydrochloride]", "COMPARISON_OPERATOR": "=", "Emax [%]": 44.2}
{"COMPOUND": "CN(C)C(CNC(=O)N1Cc2cccc(C#N)c2C1)c1ccsc1 (stereo not shown)", "COMPARISON_OPERATOR": "=", "Emax [%]": 5.3}
{"COMPOUND": "CN(C)C(CNC(=O)NC1CCCc2c(O)cccc21)c1ccsc1 (stereo not shown)", "COMPARISON_OPERATOR": "=", "Emax [%]": 61}
{"COMPOUND": "CN(C)C1(CNC(=O)N[C@H]2CCc3ccccc3C2)CCCC1", "COMPARISON_OPERATOR": "<", "Emax [%]": 1}
{"COMPOUND": "CN(C)C(CNC(=O)N1CC[C@H](c2ccccc2)C1)c1ccsc1 (stereo partly shown)", "COMPARISON_OPERATOR": "=", "Emax [%]": 3.3}
{"COMPOUND": "CN(C)C1(CNC(=O)N2Cc3ccc(F)cc3C2)CCOCC1", "COMPARISON_OPERATOR": "=", "Emax [%]": 14.5}
{"COMPOUND": "CN(C)C1(CNC(=O)N2Cc3ccccc3C2)CCCC1", "COMPARISON_OPERATOR": "<", "Emax [%]": 1}
{"COMPOUND": "COc1ccc(C(CNC(=O)N2Cc3ccc(F)cc3C2)N(C)C)cc1 (stereo not shown) [Compound 16a, hydrochloride]", "COMPARISON_OPERATOR": "=", "Emax [%]": 12.2}
{"COMPOUND": "CNC(CNC(=O)N1Cc2ccccc2C1)c1ccccc1 (single isomer, unassigned; (-)) [Compound 38-ent-A]", "COMPARISON_OPERATOR": "=", "Emax [%]": 3.7}
{"COMPOUND": "CN(C)C1(CNC(=O)N[C@H]2CCc3ccccc3C2)CCCCC1", "COMPARISON_OPERATOR": "<", "Emax [%]": 1}
{"COMPOUND": "CN(C)C(CNC(=O)N1Cc2ccccc2C1)c1ccc(F)cc1Cl (stereo not shown) [Compound 14a, hydrochloride]", "COMPARISON_OPERATOR": "=", "Emax [%]": 61.2}
{"COMPOUND": "CN(C)[C@H](CCNC(=O)N1CC[C@H](c2ccccc2)C1)c1ccsc1", "COMPARISON_OPERATOR": "=", "Emax [%]": 12.2}
{"COMPOUND": "CN(C)C1(CNC(=O)N2Cc3ccccc3C2)CCCCC1", "COMPARISON_OPERATOR": "=", "Emax [%]": 20.8}
{"COMPOUND": "CN(C)[C@@H](CCNC(=O)N[C@@H]1CCc2ccccc2C1)c1ccsc1", "COMPARISON_OPERATOR": "<", "Emax [%]": 1}
{"COMPOUND": "CN(C)C(CNC(=O)N1CCCc2cc(O)ccc21)c1ccsc1 (stereo not shown)", "COMPARISON_OPERATOR": "=", "Emax [%]": 20.1}
{"COMPOUND": "CN(C)C(CNC(=O)N1Cc2ccc(F)cc2C1)c1ccccc1 (stereo not shown) [Compound 20a, hydrochloride]", "COMPARISON_OPERATOR": "=", "Emax [%]": 3.65}

Data credit: patent US20220315567A1
